Biological target: human LPA1 (Homo sapiens)
Construct: expressed in transfected cells; host or cells: CHO-K1
Sequence (Q92633 whole entry): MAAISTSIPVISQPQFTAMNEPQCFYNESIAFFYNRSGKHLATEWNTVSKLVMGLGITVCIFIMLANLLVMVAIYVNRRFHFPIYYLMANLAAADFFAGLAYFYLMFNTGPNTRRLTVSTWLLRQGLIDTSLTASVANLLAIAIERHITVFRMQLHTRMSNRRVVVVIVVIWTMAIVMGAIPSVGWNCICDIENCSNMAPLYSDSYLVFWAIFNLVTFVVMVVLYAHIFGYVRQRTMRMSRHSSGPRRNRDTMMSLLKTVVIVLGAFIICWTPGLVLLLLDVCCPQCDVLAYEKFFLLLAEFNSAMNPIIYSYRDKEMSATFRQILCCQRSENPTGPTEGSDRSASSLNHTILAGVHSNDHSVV
Test: In vitro LPA1 functional antagonist assay (calcium mobilization, FLIPR)
Type: cell-based
Settings: CHO-K1 cells overexpressing human LPA1; Oleoyl LPA challenge; calcium mobilization on FLIPR Tetra
pIC50: −log10 of the molar value.
value.type: pIC50

Some entries whose results are on file:
O=C(O)c1cccc2cn(C[C@H](OC3CCCC3)[C@H](O)c3ccccc3)nc12: < 5.00
COc1cc([C@@H](O)[C@H](Cc2nc3cc(C(=O)O)ccc3[nH]2)OCC2CCC2)cc(OC)c1C [Compound 131a]: < 5.00
COc1cc([C@@H](O)[C@H](Cc2nc3cc(C(=O)O)ccc3n2C)OCC2CCC2)cc(OC)c1C [Compound 119a]: < 5.00

// switching to the query molecule
IN: Looking for the measured pIC50 of N#Cc1cc([C@@H](O)[C@H](Cn2cc3cccc(C(=O)O)c3n2)OC2CCCC2)ccc1Cl , can you help?
OUT: < 5.00
